Numbers sourced from paper PMC7048302.

Test: Cytotoxicity assay (MTT reduction)
Assay type: cell-based, monkey
Conditions: monkey, COS-7 cells (fibroblast-like monkey kidney cell line); 72 hours, mean ± SD of three independent assays
CC50 at 72 h: recorded values

INSERT INTO results (molecule, result) VALUES
  ('Nc1cc(N)nc(N2CCOCC2)n1 [LabMol-150]', '> 200 µM'),
  ('Fc1cccc(Nc2nc(NCC3CCCO3)c3ccccc3n2)c1 (stereo not drawn) [LabMol-152]', '16.7 µM');

Below: the item to evaluate.
Ask: Reported CC50 at 72 h, molecule CCc1nc(N)nc(N)c1-c1ccc(Cl)cc1 [Pyrimethamine, pyrimethamine, reference compound] : ____
Result: > 100 µM

* * *

CC50 at 72 h: recorded values
Assay: Cytotoxicity assay (MTT reduction)
Type: cell-based, monkey
Conditions: monkey, COS-7 cells (fibroblast-like monkey kidney cell line); 72 hours, mean ± SD of three independent assays

Observe how each entry below is paired with its result.
INSERT INTO assay_data (compound, measured_property, result) VALUES
  ('CC(=O)N(C1=C(N2CCOCC2)C(=O)c2ccccc2C1=O)c1ccc(C(=O)O)cc1', 'CC50 at 72 h', '141 µM'),
  ('Oc1ccccc1C1N=C(c2ccccc2)N=C(c2ccccc2)N1 (stereo not drawn)', 'CC50 at 72 h', '> 100 µM');

Below: the item to evaluate.
Ask: Reported CC50 at 72 h, compound `CC1(C)NC(C2=NOC(C)(C)N2)=NO1` : ____
Result: > 200 µM
